- tested-target: T1, Recombinant DR3-Fc (R&D Systems, cat. #943-D3) (UniProt Q93038 25-199, limits assumed)
- T1 construct: dimeric MW~92 kDa; also called DR3 receptor; Fc-DR3; not shown: Fc part of the bought fusion
- T1 sequence (looked up): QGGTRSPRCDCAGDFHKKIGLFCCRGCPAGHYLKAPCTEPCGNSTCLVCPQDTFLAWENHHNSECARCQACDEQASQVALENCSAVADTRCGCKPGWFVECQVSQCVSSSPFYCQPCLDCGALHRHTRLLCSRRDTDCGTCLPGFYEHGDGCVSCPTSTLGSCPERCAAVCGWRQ
- experiment-description: ELISA, DR3-Fc immobilized
Answer each item with its documented pEC50.
Answers are plain numbers, as −log10 of the molar value.

Q: Please look up its pEC50: TL1W96 (His-TEV-TL1A R170E) (ligand, also called TL1W96 (R170E)) HHHHHHENLYFQGLKGQEFAPSHQQVYAPLRADGDKPRAHLTVVRQTPTQHFKNQFPALHWEHELGLAFTKNRMNYTNKFLLIPESGDYFIYSQVTFRGMTSECSEIRQAGEPNKPDSITVVITKVTDSYPEPTQLLMGTKSVCEVGSNWFQPIYLGAMFSLQEGDKLMVNVSDISLVDYTKEDKTFFGAFLL
Ans: 7.06

Q: Thanks! And TL1W126 (His-TEV-TL1A F209W) (ligand, also called TL1W126 (F209W)) HHHHHHENLYFQGLKGQEFAPSHQQVYAPLRADGDKPRAHLTVVRQTPTQHFKNQFPALHWEHELGLAFTKNRMNYTNKFLLIPESGDYFIYSQVTFRGMTSECSEIRQAGRPNKPDSITVVITKVTDSYPEPTQLLMGTKSVCEVGSNWWQPIYLGAMFSLQEGDKLMVNVSDISLVDYTKEDKTFFGAFLL ?
Ans: 7.25

Q: Thanks! And TL1W124 (His-TEV-TL1A N207K) (ligand, also called TL1W124 (N207K)) HHHHHHENLYFQGLKGQEFAPSHQQVYAPLRADGDKPRAHLTVVRQTPTQHFKNQFPALHWEHELGLAFTKNRMNYTNKFLLIPESGDYFIYSQVTFRGMTSECSEIRQAGRPNKPDSITVVITKVTDSYPEPTQLLMGTKSVCEVGSKWFQPIYLGAMFSLQEGDKLMVNVSDISLVDYTKEDKTFFGAFLL ?
Ans: 6.96

Q: Thanks! And TL1W94 (His-TEV-TL1A M158E) (ligand, also called TL1W94 (M158E)) HHHHHHENLYFQGLKGQEFAPSHQQVYAPLRADGDKPRAHLTVVRQTPTQHFKNQFPALHWEHELGLAFTKNRMNYTNKFLLIPESGDYFIYSQVTFRGETSECSEIRQAGRPNKPDSITVVITKVTDSYPEPTQLLMGTKSVCEVGSNWFQPIYLGAMFSLQEGDKLMVNVSDISLVDYTKEDKTFFGAFLL ?
Ans: 7.23

Q: Thanks! And TL1W44 (His-TEV-TL1A P189K) (ligand, also called TL1W44 (P189K)) HHHHHHENLYFQGLKGQEFAPSHQQVYAPLRADGDKPRAHLTVVRQTPTQHFKNQFPALHWEHELGLAFTKNRMNYTNKFLLIPESGDYFIYSQVTFRGMTSECSEIRQAGRPNKPDSITVVITKVTDSYKEPTQLLMGTKSVCEVGSNWFQPIYLGAMFSLQEGDKLMVNVSDISLVDYTKEDKTFFGAFLL ?
Ans: 6.78

// batch mode: one pEC50 value per listed entry
1. TL1W104 (His-TEV-TL1A T185L) (ligand, also called TL1W104 (T185L)) HHHHHHENLYFQGLKGQEFAPSHQQVYAPLRADGDKPRAHLTVVRQTPTQHFKNQFPALHWEHELGLAFTKNRMNYTNKFLLIPESGDYFIYSQVTFRGMTSECSEIRQAGRPNKPDSITVVITKVLDSYPEPTQLLMGTKSVCEVGSNWFQPIYLGAMFSLQEGDKLMVNVSDISLVDYTKEDKTFFGAFLL
2. TL1W109 (His-TEV-TL1A S187L) (ligand, also called TL1W109 (S187L)) HHHHHHENLYFQGLKGQEFAPSHQQVYAPLRADGDKPRAHLTVVRQTPTQHFKNQFPALHWEHELGLAFTKNRMNYTNKFLLIPESGDYFIYSQVTFRGMTSECSEIRQAGRPNKPDSITVVITKVTDLYPEPTQLLMGTKSVCEVGSNWFQPIYLGAMFSLQEGDKLMVNVSDISLVDYTKEDKTFFGAFLL
3. TL1W38 (His-TEV-TL1A L123K) (ligand, also called TL1W38 (L123K)) HHHHHHENLYFQGLKGQEFAPSHQQVYAPLRADGDKPRAHLTVVRQTPTQHFKNQFPALHWEHEKGLAFTKNRMNYTNKFLLIPESGDYFIYSQVTFRGMTSECSEIRQAGRPNKPDSITVVITKVTDSYPEPTQLLMGTKSVCEVGSNWFQPIYLGAMFSLQEGDKLMVNVSDISLVDYTKEDKTFFGAFLL
4. TL1W106 (His-TEV-TL1A T185D) (ligand, also called TL1W106 (T185D)) HHHHHHENLYFQGLKGQEFAPSHQQVYAPLRADGDKPRAHLTVVRQTPTQHFKNQFPALHWEHELGLAFTKNRMNYTNKFLLIPESGDYFIYSQVTFRGMTSECSEIRQAGRPNKPDSITVVITKVDDSYPEPTQLLMGTKSVCEVGSNWFQPIYLGAMFSLQEGDKLMVNVSDISLVDYTKEDKTFFGAFLL
5. TL1W80 (His-TEV-TL1A K111A) (ligand, also called TL1W80 (K111A)) HHHHHHENLYFQGLKGQEFAPSHQQVYAPLRADGDKPRAHLTVVRQTPTQHFANQFPALHWEHELGLAFTKNRMNYTNKFLLIPESGDYFIYSQVTFRGMTSECSEIRQAGRPNKPDSITVVITKVTDSYPEPTQLLMGTKSVCEVGSNWFQPIYLGAMFSLQEGDKLMVNVSDISLVDYTKEDKTFFGAFLL
6. TL1W114 (His-TEV-TL1A T192A) (ligand, also called TL1W114 (T192A)) HHHHHHENLYFQGLKGQEFAPSHQQVYAPLRADGDKPRAHLTVVRQTPTQHFKNQFPALHWEHELGLAFTKNRMNYTNKFLLIPESGDYFIYSQVTFRGMTSECSEIRQAGRPNKPDSITVVITKVTDSYPEPAQLLMGTKSVCEVGSNWFQPIYLGAMFSLQEGDKLMVNVSDISLVDYTKEDKTFFGAFLL

Ans:
7.31
7.75
7.53
6.91
7.52
7.63

Q: Please look up its pEC50: TL1W78 (His-TEV-TL1A R103H) (ligand, also called TL1W78 (R103H)) HHHHHHENLYFQGLKGQEFAPSHQQVYAPLRADGDKPRAHLTVVHQTPTQHFKNQFPALHWEHELGLAFTKNRMNYTNKFLLIPESGDYFIYSQVTFRGMTSECSEIRQAGRPNKPDSITVVITKVTDSYPEPTQLLMGTKSVCEVGSNWFQPIYLGAMFSLQEGDKLMVNVSDISLVDYTKEDKTFFGAFLL
Ans: 7.11
